Please go through the items and note down their pEC50.
Target: T1, recombinant human midkine (huMK) (human, UniProt P21741 21-143)
T1 construct: also called human MK; Human MK
T1 sequence (looked up): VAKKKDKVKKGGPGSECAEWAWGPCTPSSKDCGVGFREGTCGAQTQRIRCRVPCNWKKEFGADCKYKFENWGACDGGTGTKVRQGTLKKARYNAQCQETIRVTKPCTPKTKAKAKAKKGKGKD
Test: ELISA, plate coated with huMK
Answers are plain numbers, as −log10 of the molar value.

Below, each entry is followed by its recorded pEC50 result.
{"binder": "IP14-H6L2 (antibody, V domains shown, also called hIP14-H6L2; Hv6 Lv2) VH: QVQLVQSGGGLVKPGHSLRLSCAASGQSFSSYWMNWVRQAPGKGLEWIGMIHPSDSETILNQKFKDKATLSVDIAKNSAYLQMNSLRAEDTAVYYCSSWSAKRGDFWGQGTLVTVSS VL: EIVLTQSPATLSLSPGERATLSCRASESISNNLHWYQQKPGQAPRLLIKYASQSISGIPARFSGSGPGTDFTLTISSVEPEDFAVYYCQQSNSWPLTFGGGTKLEIKR", "pEC50": 10.39}
{"binder": "IP14-H2L1 (antibody, V domains shown, also called Hv2 Lv1) VH: QVQLVQSGAEVKKPGASVKVSCKASGQSFSSYWMNWVRQAPGQGLEWIGMIHPSDSETILNQKFKDKATLTVDISTSTAYMELSSLRSEDTAVYYCSSWSAKRGDFWGQGTLVTVSS VL: EIVLTQSPATLSLSPGERANLSCRASESISNNLHWYQQKPHQAPRLLIKYASQSISGIPARFSGSGPGTDFNLTISSVEPEDFAVYYCQQSNSWPLTFGGGTKLEIKR", "pEC50": 10.03}

Hello, I would appreciate it if you could give pEC50 for each entry below.
1. IP14-H5L2 (antibody, V domains shown, also called Hv5 Lv2) VH: QVQLVQSGGGLVQPGGSLRLSCAASGQSFSSYWMNWVRQAPGQGLEWIGMIHPSDSETILNQKFKDKATLTVDISKNTAYLQMNSLRAEDTAVYYCSSWSAKRGDFWGQGTLVTVSS VL: EIVLTQSPATLSLSPGERATLSCRASESISNNLHWYQQKPGQAPRLLIKYASQSISGIPARFSGSGPGTDFTLTISSVEPEDFAVYYCQQSNSWPLTFGGGTKLEIKR
2. IP14 Hv0 Lv4 (antibody, V domains shown) VH: QVQLQQPGAELVRPGHSVKLSCKASGQSFSSYWMNWVRQRPGQGLEWIGMIHPSDSETILNQKFKDKATLTVDISSNTAYMQLSSPTSEDSAVYFCSSWSAKRGDFWGQGTTLTVSS VL: EIVLTQSPDFQSVTPKEKVNITCRASESISNNLHWYQQKPHQSPKLLIYYASQSISGVPSRFSGSGSGTDFNLTINSVEAEDAATYYCQQSNSWPLTFGGGTKLEIKR

Response given:
1. 10.16
2. 9.97

The recorded pEC50 for IP14-H6L6 (antibody, V domains shown, also called Hv6 Lv6) VH: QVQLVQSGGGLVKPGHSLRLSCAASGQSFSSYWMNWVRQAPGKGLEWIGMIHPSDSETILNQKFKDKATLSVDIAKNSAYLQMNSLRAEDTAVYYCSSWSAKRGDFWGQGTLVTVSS VL: EIVLTQSPSTLSASVGDRVNITCRASESISNNLHWYQQKPHKAPKLLIYYASQSISGVPSRFSGSGSGTEFNLTISSVQPDDFATYYCQQSNSWPLTFGQGTKVEIKR is 10.06

Values were extracted from patent US20170240628A1.
